Target or test system: T1, S1 subunit of the SARS-CoV-2 spike protein (Sino Biological 40591-V08H), His tag (SARS-CoV-2, UniProt P0DTC2 16-685)
T1 construct: domain: S1 subunit
Measured metric: HTRF deltaF (deltaF)
Number in deltaF, nothing else.

>  <Binder>
IMPI-022 (antibody, V domains shown) VH: EVQLVESGGGLVQPGRSLRLSCAASGFTFDDYAMHWVRQAPGKGLEWVSGITWNSGSIGYADSVKGRFTISRDNAKNSLYLHMNSLRVEDTALYYCAKDLQGDYYYYGVDVWGQGTTVTVSS VL: AIQLTQSPSSLSASVGDRVTITCRASQGISSALAWYQQKPGKAPKLLLYDASSLVSGVPSRFSGSRSGTDFTLTISSLQPEDFATYYCQQFISYPLTFGGGTRVEIK

>  <HTRF deltaF / deltaF>
-5.8

$$$$

Now look at this one.
# query: HTRF deltaF of entry IMPI-006 (antibody, V domains shown) VH: QLQLQESGPGLVKPSETLSLTCTVSGGSISNSNYYWGWIRQPPGKGLEWIGSIYYSGRTYYNPSLKSRVTISVDTSKNQFSLKLSSVTAADTAVYYCARMGLLWFGEFYGMDVWGQGTTVTVSS VL: DIQMTQSPSSLSASVGDRVTITCRASQGISSWLAWYQQKPEKAPKSLIYDASSLQRGVPSRFSGSGSGTDFTLTISSLQPEDFASYYCQQYNSYPLTFGGGTRVEIK
885
